These entries and their values trace back to patent US20250026849A1.

- STUDY TARGET: T1, P26 (human, UniProt P02771 381-609, limits assumed)
- T1 construct: also called AFP p26
- T1 sequence: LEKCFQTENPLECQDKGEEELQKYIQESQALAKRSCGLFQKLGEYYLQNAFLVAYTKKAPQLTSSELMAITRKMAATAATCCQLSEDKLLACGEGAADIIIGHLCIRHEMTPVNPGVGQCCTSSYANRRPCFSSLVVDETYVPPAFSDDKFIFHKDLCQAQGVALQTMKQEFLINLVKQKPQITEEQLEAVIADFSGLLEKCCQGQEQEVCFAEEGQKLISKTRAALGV
- ASSAY TEXT: ELISA, format not described
- Set-up: unit not given here
The entries below are paired with their reported ELISA_avg.
Form rule: numeric answer, no unit written next to it.

Field: example entries. Status: answers known.
Request: Which ELISA_avg is listed for D domain SEQ ID NO: 983 (designed binder) MGSWDQFKNSLASIKRVLEALGGSEAELAIFEVKIAHFEHFLQQYKGKGNPEVEALRKEAAAIRDELQAYRHN ?
Result: 15.6

Request: Which ELISA_avg is listed for D domain SEQ ID NO: 972 (designed binder) MGSWSIFKQDLADIKDSLEALGGSEAELAMFEMDIAWFEHTLQYYKGKGNPEVEALRKEAAAIRDELQAYRHN ?
Result: 16.6

Request: Which ELISA_avg is listed for D domain SEQ ID NO: 970 (designed binder) MGSWVEFKRDLANIKQRLEALGGSEAELAQFEMQIAWFEHTLQYYKGKGNPEVEALRKEAAAIRDELQAYRHN ?
Result: 30.4

Next:
Request: Which ELISA_avg is listed for D domain SEQ ID NO: 894 (designed binder) MGSWTEFVNRLYAIDSRLWALGGSEAELAAFEKEIAAFESELQAYKGKGNPEVEGLRTHAAKIRHWLQAYRHN ?
Result: 16.7

Request: Which ELISA_avg is listed for D domain SEQ ID NO: 891 (designed binder) MGSWTEFEKRLHAIDYRLWALGGSEAELAAFEKEIAAFESELQAYKGKGNPEVEDLREHAAAIRHWLQAYRHN ?
Result: 17.1

Request: Which ELISA_avg is listed for D domain SEQ ID NO: 908 (designed binder) MGSWYEFMYRLDAIEYRLFALGGSEAELAAFEKEIAAFESELQAYKGKGNPEVESLRIHAAMIREWLQAYRHN ?
Result: 19.4

Request: Which ELISA_avg is listed for D domain SEQ ID NO: 915 (designed binder) MGSWYEFYDRLDAIEDRLFALGGSEAELAAFEKEIAAFESELQAYKGKGNPEVESLRDQAAYIRTWLQAYRHN ?
Result: 31.9
